Test system: MOLT-4 leukemia
Assay: NCI tumour cell line growth inhibition, 48 h
Record form. Attribute: TGI. Fill in for each entry.

Request - read-out TGI | tested on MOLT-4 leukemia | compound "Cc1cccc(C)c1NC(=O)CCC(=O)NC(N)=NC#N"
> 100 µM

Can you check CNC(=O)C(C)Oc1ccc(OCC2CCCCC2)cc1 (centres undefined) next?
> 100 µM

Can you check Cc1cccc(NC(=O)C(=O)C(C2OC(=O)c3ccccc32)[N+](=O)[O-])c1C (centres undefined) next?
> 100 µM

Can you check "Nc1[nH]nc2nc(-c3cc(Cl)ccc3Cl)cc(-c3ccc(F)cc3)c12" next?
> 100 µM

Can you check "CCc1n[nH]c(=O)n1CC" next?
> 100 µM

Can you check "NS(=O)(=O)c1nnc(NS(=O)(=O)c2ccccc2[N+](=O)[O-])s1" next?
> 100 µM

Can you check "CCN1CCN(c2nc(C)cc(NCc3cc(Nc4ccnc5cc(Cl)ccc45)ccc3F)n2)CC1" next?
16.6 µM

Can you check "COc1ccc2c(c1)CCc1c-2[nH]c2cc3c(cc2c1=O)OCO3" next?
> 100 µM

Can you check "CN(C)c1ccc(/C=C(\C#N)c2cc3ccccc3[nH]2)cc1" next?
> 100 µM

Can you check COc1cc(OCc2ccccc2)c2c(CCC(=O)O)cc(=O)oc2c1 (tested in a mixture with another compound) next?
90.4 µM

Can you check CN1CCC2(c3ccccc3)CC(=O)/C(=C/c3ccc(Cl)c(Cl)c3)C1C2 (centres undefined) next?
7.81 µM

Can you check "C=C(C)[C@H]1CC[C@@]23O[C@@H]2[C@@H](C[C@@]2(C)CC(=O)[C@H](CC(=O)C1)O2)OC(=O)[C@@]12CC[C@H](C(=C)C)CC(=O)C[C@H]4O[C@](C)(CC4=O)C[C@@H](OC3=O)[C@@H]1O2" next?
> 100 µM

Can you check "CC1(C)OCC(CO)(CO)CO1" next?
> 100 µM

Can you check "COc1ccc(CN2C(=O)[C@@H]3Cc4c(OC)c(C)c(OC)c(OC)c4[C@H](/C2=C\c2cc(OC)c(OC)c(C)c2OC)N3C(=O)OC(C)C)cc1" next?
> 100 µM

Can you check "C#C[C@@]1(O)[C@@H](CO)O[C@@H](n2cc(Br)c3c(Cl)ccnc32)[C@@H]1O" next?
3.05 µM

Can you check "COc1ccc(Cc2cc(Cc3ccc(OC)cc3)cc(Cc3ccc(OC)cc3)c2)cc1" next?
> 100 µM

Can you check "CC1(C)Cc2c(sc3[nH]c(=S)[nH]c(=S)c23)CS1" next?
> 100 µM

Can you check "CN(C)NC1=C([N+](=O)[O-])C=NN(c2ccccc2)C1" next?
5.05 µM

Can you check CC(C)(C)[Si](C)(C)OCC1OC(n2cnc3c(=O)[nH]cnc32)CC1O (centres undefined) next?
> 100 µM

Can you check Cc1ccc(N)cc1[As]=[As]c1cc(N)ccc1C (centres undefined) next?
8.82 µM

Can you check CCOC(=O)CN1C(=O)NC(C)(c2ccccc2)C1=O (centres undefined) next?
> 100 µM

Can you check "Cc1ccc(N(C=O)c2c([N+](=O)[O-])cc([N+](=O)[O-])c3c2=[N+]([O-])CN=3)cc1" next?
80.4 µM

Can you check "C=C1C(=O)O[C@H]2[C@H]1CC/C(COC(=O)c1cccnc1N)=C\CC[C@@]1(C)O[C@@H]21" next?
6.46 µM

Can you check "COc1ccc(Cn2cc(COc3cc(/C=C/C(=O)c4cc(OC)c(OC)c(OC)c4)ccc3OC)nn2)cc1" next?
> 100 µM

Can you check "CC[C@@H](C)/C=C(C)/C=C/C(=O)c1c(O)c(-c2ccc(OC(=O)[C@@]34CC[C@@](C)(C(=O)O3)C4(C)C)cc2)cn(O)c1=O" next?
> 50 µM

Can you check "CCOC(=O)c1cc(=O)n(C)c(=O)n1C" next?
> 100 µM

Can you check "O=C(c1cscc1CCc1ccccc1)c1cscc1CCc1ccccc1" next?
> 100 µM

Can you check "Cc1ccc(S(=O)(=O)OCOS(=O)(=O)c2ccc(C)cc2)cc1" next?
> 100 µM

Can you check ICC1CCCO1 (centres undefined) next?
> 100 µM

Can you check CCOC(=O)C1=C(C)NC(=O)NC1c1ccc(OC)cc1OC (centres undefined) next?
> 100 µM

Can you check "COc1cc(-c2nn(-c3ccc(NC(=O)Nc4cc(C(F)(F)F)cc(C(F)(F)F)c4)cc3)cc2-c2ccncc2)ccc1Cl" next?
> 100 µM

Can you check "Cc1sc(C(=O)c2cncnc2N[C@@H]2C[C@H](COS(N)(=O)=O)[C@@H](O)C2)cc1[C@@H]1NCCc2ccc(Cl)cc21" next?
23.4 µM

Can you check CC(C)c1oc(=O)cc2c1C(O)C1OC(=O)C3(C)C(O)C4OC4C2(C)C13 (centres undefined) next?
2.13 µM

Can you check "C[C@]12CC[C@H](O[C@@H]3O[C@H](CO[C@@H]4O[C@H](CO)[C@@H](O)[C@H](O)[C@H]4O)[C@@H](O)[C@H](O)[C@H]3O)C[C@@H]1CC[C@@H]1[C@@H]2CC[C@]2(C)[C@@H](C3=CC(=O)OC3)CC[C@]12O" next?
> 41 µM

Can you check O=S1SC(=S)C2C=CC=NC21 (centres undefined) next?
64.9 µM

Can you check "Oc1ccc2c(=S)cc(-c3ccc(Br)cc3)oc2c1O" next?
6.77 µM

Can you check "Cn1c(=O)c2ccccc2[n+]2c(-c3cccc([N+](=O)[O-])c3)csc12" next?
> 100 µM

Can you check "CN1CCN(c2cc3nc(-c4ccc(Cl)cc4)[nH]c3cc2F)CC1" next?
41.1 µM

Can you check "O=C(O)CCC(c1ccccc1)(c1ccccc1)c1ccccc1" next?
> 92.2 µM
